- subjectOfTest: MMP-2 (Homo sapiens, UniProt P08253)
- Construct: gene MMP2
- Sequence (P08253 110-446 limits assumed): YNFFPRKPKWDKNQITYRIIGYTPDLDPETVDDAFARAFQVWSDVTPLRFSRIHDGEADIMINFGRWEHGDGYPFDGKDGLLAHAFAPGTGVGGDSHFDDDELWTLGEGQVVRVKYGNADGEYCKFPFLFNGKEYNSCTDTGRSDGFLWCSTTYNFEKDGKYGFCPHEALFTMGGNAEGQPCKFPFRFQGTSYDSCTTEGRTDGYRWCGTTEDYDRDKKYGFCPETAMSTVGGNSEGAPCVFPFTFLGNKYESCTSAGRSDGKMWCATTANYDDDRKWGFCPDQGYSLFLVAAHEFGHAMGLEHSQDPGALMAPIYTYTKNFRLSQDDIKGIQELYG
- protocolDetails: fluorogenic peptide substrate assay
- Type: biochemical
assayMetric: IC50 (µM)
Note: unit µM is implicit; provide only the numeric part.

Study these solved cases before continuing.
{"smilesStructure": "O=C(Nc1ccccc1)Nc1ccc(S(=O)(=O)NC(P(=O)(O)O)P(=O)(O)O)cc1", "IC50, µM": 2.8}
{"smilesStructure": "O=P(O)(O)C(NS(=O)(=O)c1cccc2ccccc12)P(=O)(O)O", "IC50, µM": 15.2}
{"smilesStructure": "O=C(Nc1ccc(S(=O)(=O)NC(P(=O)(O)O)P(=O)(O)O)cc1)c1ccc2ccccc2c1", "IC50, µM": 3.9}
{"smilesStructure": "Nc1ccc(S(=O)(=O)NC(P(=O)(O)O)P(=O)(O)O)cc1", "IC50, µM": 19}
{"smilesStructure": "O=P(O)(O)C(NS(=O)(=O)c1ccc2ccccc2c1)P(=O)(O)O", "IC50, µM": 18.7}
{"smilesStructure": "O=C(Nc1ccc(S(=O)(=O)NC(P(=O)(O)O)P(=O)(O)O)cc1)c1ccc(Br)cc1", "IC50, µM": 0.67}
{"smilesStructure": "O=C(Nc1ccc(S(=O)(=O)NC(P(=O)(O)O)P(=O)(O)O)cc1)c1ccccc1", "IC50, µM": 2.75}
{"smilesStructure": "O=C(Nc1ccc(S(=O)(=O)NC(P(=O)(O)O)P(=O)(O)O)cc1)c1cccc2ccccc12", "IC50, µM": 2.7}
{"smilesStructure": "O=C(Nc1ccc(S(=O)(=O)NC(P(=O)(O)O)P(=O)(O)O)cc1)c1cccc(Br)c1", "IC50, µM": 4.2}
{"smilesStructure": "Cc1ccc(C(=O)Nc2ccc(S(=O)(=O)NC(P(=O)(O)O)P(=O)(O)O)cc2)cc1", "IC50, µM": 0.958}

Entry O=C(Nc1ccc(S(=O)(=O)NC(P(=O)(O)O)P(=O)(O)O)cc1)c1ccc([N+](=O)[O-])cc1 — recorded IC50 = 1.7

Entry O=C(Nc1cccc(S(=O)(=O)NC(P(=O)(O)O)P(=O)(O)O)c1)c1ccccc1 — recorded IC50 = 9

Entry O=C1c2ccccc2C(=O)N1c1ccc(S(=O)(=O)NC(P(=O)(O)O)P(=O)(O)O)cc1 — recorded IC50 = 5.3
